Source of measurements: patent US20110086006

- testSystem: T1, internally quenched fluorogenic peptide (FRET substrate), Ac-DED(EDANS)EEαAbuψ[COO]ASK(DABCYL)-NH2
- T1 chain: DEDEEXASK
Each entry below carries its recorded Kcat/Km.
Respond with the bare value in M⁻¹ s⁻¹.

Example cases with answers are listed next.
protein | valueUnit | Kcat/Km
A156S mutant HCV NS3 serine protease domain, genotype 1b (protein) APITAYSQQTRGLLGCIITSLTGRDRNQVEGEVQVVSTATQSFLATCVNGVCWTVYHGAGSKTLAGPKGPITQMYTNVDQDLVGWQAPPGARSLTPCTCGSSDLYLVTRHADVIPVRRRGDSRGSLLSPRPVSYLKGSSGGPLLCPSGHAVGIFRSAVCTRGVAKAVDFVPVESMETTMRSHHHHHH | M⁻¹ s⁻¹ | 664000
D168A mutant HCV NS3 serine protease domain, genotype 1b (protein) APITAYSQQTRGLLGCIITSLTGRDRNQVEGEVQVVSTATQSFLATCVNGVCWTVYHGAGSKTLAGPKGPITQMYTNVDQDLVGWQAPPGARSLTPCTCGSSDLYLVTRHADVIPVRRRGDSRGSLLSPRPVSYLKGSSGGPLLCPSGHAVGIFRAAVCTRGVAKAVAFVPVESMETTMRSHHHHHH | M⁻¹ s⁻¹ | 150000

Name the recorded Kcat/Km of the protein listed here: wild type HCV NS3 serine protease domain, genotype 1b (Con1), residues Ala1-Ser181 with a C-terminal hexa-histidine tag (protein) APITAYSQQTRGLLGCIITSLTGRDRNQVEGEVQVVSTATQSFLATCVNGVCWTVYHGAGSKTLAGPKGPITQMYTNVDQDLVGWQAPPGARSLTPCTCGSSDLYLVTRHADVIPVRRRGDSRGSLLSPRPVSYLKGSSGGPLLCPSGHAVGIFRAAVCTRGVAKAVDFVPVESMETTMRSHHHHHH
947000

Name the recorded Kcat/Km of the protein listed here: D168V mutant HCV NS3 serine protease domain, genotype 1b (protein) APITAYSQQTRGLLGCIITSLTGRDRNQVEGEVQVVSTATQSFLATCVNGVCWTVYHGAGSKTLAGPKGPITQMYTNVDQDLVGWQAPPGARSLTPCTCGSSDLYLVTRHADVIPVRRRGDSRGSLLSPRPVSYLKGSSGGPLLCPSGHAVGIFRAAVCTRGVAKAVVFVPVESMETTMRSHHHHHH
498000
